System under test: recombinant BRD4 BD1 (Homo sapiens)
Construct: recombinant BRD4 BD1 and BRD4 BD2 proteins
Assay protocol: Competitive fluorescence-polarization (FP) binding assay, BRD4 BD1
Test parameters: FAM labeled probe 1.5 nM, protein 10 nM, pH 6.5
pIC50: −log10 of the molar value.
So basically: pIC50 at 8 or higher? That is True. Lower than 8? That is False.

- CCn1nc(C2CC2)cc1Nc1nc(COC)nc2[nH]c3cc(-c4c(C)noc4C)c(OC)cc3c12: True
- COc1cc2c(cc1-c1c(C)nn(C)c1C)[nH]c1ncnc(Nc3cc(C4CC4)nn3C)c12: False
- CCn1nc2c(c1Nc1nc(N)nc3[nH]c4cc(-c5c(C)noc5C)c(OC)cc4c13)CCC2: True
- COc1cc2c(cc1-c1c(C)noc1C)[nH]c1nc(C)nc(Nc3cc(C4CC4)nn3-c3cn(C)cn3)c12: False
- COc1cc2c(cc1-c1c(C)noc1C)[nH]c1nc(N)nc(Nc3cc(C4CC4)nn3C(C)C)c12: True
- COc1cc2c(cc1-c1c(C)noc1C)[nH]c1nc(C)nc(Nc3cc(C4CC4)nn3-c3cnn(C)c3)c12: False
- COc1cc2c(cc1-c1c(C)noc1C)[nH]c1nc(C)nc(Nc3cc(C4CC4)n(-c4cnn(C)c4)n3)c12: False

====

System: LNCaP cells
Assay protocol: Cell growth inhibition, 4-day proliferation assay, LNCaP
Type: cell-based
Test parameters: Homo sapiens, 96 h, prostate cancer cell line, 4 days treatment
Catalogue of IC50 readings, one per entry.
Recorded endpoint: IC50 (nM)

- COc1cc2c(cc1-c1c(C)noc1C)[nH]c1nc(N)nc(Nc3c4c(nn3C)CCC4)c12: 67
- CCn1nc2c(c1Nc1nc(N)nc3[nH]c4cc(-c5c(C)noc5C)c(OC)cc4c13)CCC2: 20
- COc1cc2c(cc1-c1c(C)noc1C)[nH]c1nc(N)nc(Nc3cc(C4CC4)nn3C(C)C)c12: 3
- CCn1nc(C2CC2)cc1Nc1nc(COC)nc2[nH]c3cc(-c4c(C)noc4C)c(OC)cc3c12: 3

====

Some compounds, each annotated with its measured pIC50.
System under test: recombinant BRD4 BD2 (Homo sapiens, UniProt O60885)
Construct: recombinant BRD4 BD1 and BRD4 BD2 proteins
Assay protocol: Competitive fluorescence-polarization (FP) binding assay, BRD4 BD2
Test parameters: FAM labeled probe 1.5 nM, protein 6 nM, pH 6.5
pIC50: −log10 of the molar value.
Recorded endpoint: pIC50

* COc1cc2c(cc1-n1c(C)nnc1C)[nH]c1nc(C)nc(Nc3cc(C4CC4)nn3C)c12 | 6.88
* COCc1nc(Nc2c3c(nn2C(C)C)CCC3)c2c(n1)[nH]c1cc(-c3c(C)noc3C)c(OC)cc12 | 8.54
* COc1cc2c(cc1-n1c(C)nnc1C)[nH]c1ncnc(Nc3cc(C4CC4)nn3C)c12 | 5.89
* COc1cc2c(cc1-c1c(C)noc1C)[nH]c1nc(C)nc(Nc3cc(C4CC4)nn3-c3cnn(C)c3)c12 | 7.92
* CCn1nc2c(c1Nc1nc(N)nc3[nH]c4cc(-c5c(C)noc5C)c(OC)cc4c13)CCC2 | 8.60
* COc1cc2c(cc1-c1c(C)noc1C)[nH]c1nc(C)nc(Nc3cc(C4CC4)nn3-c3cn(C)cn3)c12 | 7.71
* COc1cc2c(cc1-c1c(C)n[nH]c1C)[nH]c1ncnc(Nc3cc(C4CC4)nn3C)c12 | 7.04
* COCc1nc(Nc2cc(C3CC3)nn2C(C)C)c2c(n1)[nH]c1cc(-c3c(C)noc3C)c(OC)cc12 | 8.68
* COc1cc2c(cc1-c1c(C)noc1C)[nH]c1nc(C)nc(Nc3cc(C4CC4)n(-c4cnn(C)c4)n3)c12 | 7.46
* COc1cc2c(cc1-c1c(C)noc1C)[nH]c1nc(N)nc(Nc3c4c(nn3C)CCC4)c12 | 8.80
* COc1cc2c(cc1-c1c(C)noc1C)[nH]c1nc(C)nc(Nc3cc(C4CC4)nn3-c3ccncc3)c12 | 7.72
* COc1cc2c(cc1-c1c(C)noc1C)[nH]c1nc(C)nc(Nc3cc(C4CC4)nn3-c3ccc(C(=O)O)cc3)c12 | 7.12
* CCn1nc(C2CC2)cc1Nc1nc(COC)nc2[nH]c3cc(-c4c(C)noc4C)c(OC)cc3c12 | 8.62
* COc1cc2c(cc1-c1c(C)noc1C)[nH]c1nc(N)nc(Nc3cc(C4CC4)nn3C(C)C)c12 | 8.68

====

Test system: MDA-MB-231 cells
Assay protocol: Cell growth inhibition, 4-day proliferation assay (WST), MDA-MB-231
Assay type: cell-based
Test parameters: Homo sapiens, MDA-MB-231, 96 h, breast cancer cell line, 4 days treatment
pIC50: −log10 of the molar value.
Item-by-item account of pIC50
Recorded endpoint: pIC50

• COCc1nc(Nc2c3c(nn2C(C)C)CCC3)c2c(n1)[nH]c1cc(-c3c(C)noc3C)c(OC)cc12 [Cpd. No. 6] = 8.22
• CCn1nc2c(c1Nc1nc(N)nc3[nH]c4cc(-c5c(C)noc5C)c(OC)cc4c13)CCC2 [Cpd. No. 4] = 8.22
• CCn1nc(C2CC2)cc1Nc1nc(COC)nc2[nH]c3cc(-c4c(C)noc4C)c(OC)cc3c12 [Cpd. No. 5] = 7.89
• COCc1nc(Nc2cc(C3CC3)nn2C(C)C)c2c(n1)[nH]c1cc(-c3c(C)noc3C)c(OC)cc12 [Cpd. No. 7] = 8.22
• COc1cc2c(cc1-c1c(C)noc1C)[nH]c1nc(N)nc(Nc3c4c(nn3C)CCC4)c12 [Cpd. No. 3] = 7.74
• COc1cc2c(cc1-c1c(C)noc1C)[nH]c1nc(C)nc(Nc3cc(C4CC4)nn3-c3ccncc3)c12 [Cpd. No. 9] = 7.18
• COc1cc2c(cc1-n1c(C)nnc1C)[nH]c1nc(C)nc(Nc3cc(C4CC4)nn3C)c12 [Cpd. No. 15] = 5.85
• COc1cc2c(cc1-c1c(C)noc1C)[nH]c1nc(N)nc(Nc3cc(C4CC4)nn3C(C)C)c12 [Cpd. No. 2] = 7.34

====

System under test: recombinant BRD4 BD1 (Homo sapiens, UniProt O60885)
Construct: recombinant BRD4 BD1 and BRD4 BD2 proteins
Assay protocol: Competitive fluorescence-polarization (FP) binding assay, BRD4 BD1
Test parameters: FAM labeled probe 1.5 nM, protein 10 nM, pH 6.5
Each item that follows carries a reported IC50.
Recorded endpoint: IC50 (nM)

- COCc1nc(Nc2c3c(nn2C(C)C)CCC3)c2c(n1)[nH]c1cc(-c3c(C)noc3C)c(OC)cc12: 3.6
- COc1cc2c(cc1-c1c(C)noc1C)[nH]c1nc(C)nc(Nc3cc(C4CC4)nn3-c3ccncc3)c12: 22.6
- COc1cc2c(cc1-n1c(C)nnc1C)[nH]c1nc(C)nc(Nc3cc(C4CC4)nn3C)c12: 131

The reported numbers originate from patent US10307407B2.
